Molecular target: T1, human GPC3-His protein (human, UniProt P51654 25-559)
T1 construct: Bought protein; also called human GPC3 protein; not shown: His tag
Assay: ELISA, coated human GPC3, antibody 0.01 nM;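 also: Plate-bound antigen coated at 1 µg/mL, antibody incubated 2 h at 37 °C, binding detected by HRP-conjugated secondary antibody with TMB substrate, read as absorbance at 450 nm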
Value kind: OD450 nm (OD450)
Answers are plain numbers, in OD450.

Take a look at these entries with their results.
Binder	Observed
F3.54.12 human-murine chimeric antibody (antibody, human IgG1, kappa, V domains shown) VH: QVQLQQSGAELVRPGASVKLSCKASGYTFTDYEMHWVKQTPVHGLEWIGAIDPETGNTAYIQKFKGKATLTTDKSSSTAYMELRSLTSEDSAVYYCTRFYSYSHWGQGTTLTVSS VL: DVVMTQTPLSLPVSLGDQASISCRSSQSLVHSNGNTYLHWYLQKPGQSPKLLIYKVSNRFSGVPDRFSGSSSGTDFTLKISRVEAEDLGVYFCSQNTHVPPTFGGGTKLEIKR	0.48
F1.57.21 human-murine chimeric antibody (antibody, human IgG1, kappa, V domains shown) VH: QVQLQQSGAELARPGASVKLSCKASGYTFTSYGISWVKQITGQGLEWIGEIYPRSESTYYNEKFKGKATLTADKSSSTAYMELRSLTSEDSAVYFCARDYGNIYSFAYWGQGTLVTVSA VL: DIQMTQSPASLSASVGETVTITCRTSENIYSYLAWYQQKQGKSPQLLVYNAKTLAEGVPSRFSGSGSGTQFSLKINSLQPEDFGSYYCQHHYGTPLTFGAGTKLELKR	0.21

As a next step, examine the binder that follows.
Name the reported OD450 nm value associated with the binder F4.13.7 human-murine chimeric antibody (antibody, human IgG1, kappa, V domains shown) VH: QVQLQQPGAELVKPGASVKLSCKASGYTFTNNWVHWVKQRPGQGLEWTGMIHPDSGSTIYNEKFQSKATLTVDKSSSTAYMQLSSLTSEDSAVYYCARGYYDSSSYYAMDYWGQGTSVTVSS VL: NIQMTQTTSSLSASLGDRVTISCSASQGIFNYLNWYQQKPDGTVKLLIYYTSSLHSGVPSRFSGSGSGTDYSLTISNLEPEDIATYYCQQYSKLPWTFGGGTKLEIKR
0.3
